- TEST_SYSTEM: SMARCA4 (Homo sapiens, UniProt P51532)
- Construct: Determination of SMARCA2 and SMARCA4 Degradation in VCaP Cells by Western Blot; endogenous in cells; host or cells: VCaP (ATCC CRL-2876)
- Sequence (P51532 whole entry): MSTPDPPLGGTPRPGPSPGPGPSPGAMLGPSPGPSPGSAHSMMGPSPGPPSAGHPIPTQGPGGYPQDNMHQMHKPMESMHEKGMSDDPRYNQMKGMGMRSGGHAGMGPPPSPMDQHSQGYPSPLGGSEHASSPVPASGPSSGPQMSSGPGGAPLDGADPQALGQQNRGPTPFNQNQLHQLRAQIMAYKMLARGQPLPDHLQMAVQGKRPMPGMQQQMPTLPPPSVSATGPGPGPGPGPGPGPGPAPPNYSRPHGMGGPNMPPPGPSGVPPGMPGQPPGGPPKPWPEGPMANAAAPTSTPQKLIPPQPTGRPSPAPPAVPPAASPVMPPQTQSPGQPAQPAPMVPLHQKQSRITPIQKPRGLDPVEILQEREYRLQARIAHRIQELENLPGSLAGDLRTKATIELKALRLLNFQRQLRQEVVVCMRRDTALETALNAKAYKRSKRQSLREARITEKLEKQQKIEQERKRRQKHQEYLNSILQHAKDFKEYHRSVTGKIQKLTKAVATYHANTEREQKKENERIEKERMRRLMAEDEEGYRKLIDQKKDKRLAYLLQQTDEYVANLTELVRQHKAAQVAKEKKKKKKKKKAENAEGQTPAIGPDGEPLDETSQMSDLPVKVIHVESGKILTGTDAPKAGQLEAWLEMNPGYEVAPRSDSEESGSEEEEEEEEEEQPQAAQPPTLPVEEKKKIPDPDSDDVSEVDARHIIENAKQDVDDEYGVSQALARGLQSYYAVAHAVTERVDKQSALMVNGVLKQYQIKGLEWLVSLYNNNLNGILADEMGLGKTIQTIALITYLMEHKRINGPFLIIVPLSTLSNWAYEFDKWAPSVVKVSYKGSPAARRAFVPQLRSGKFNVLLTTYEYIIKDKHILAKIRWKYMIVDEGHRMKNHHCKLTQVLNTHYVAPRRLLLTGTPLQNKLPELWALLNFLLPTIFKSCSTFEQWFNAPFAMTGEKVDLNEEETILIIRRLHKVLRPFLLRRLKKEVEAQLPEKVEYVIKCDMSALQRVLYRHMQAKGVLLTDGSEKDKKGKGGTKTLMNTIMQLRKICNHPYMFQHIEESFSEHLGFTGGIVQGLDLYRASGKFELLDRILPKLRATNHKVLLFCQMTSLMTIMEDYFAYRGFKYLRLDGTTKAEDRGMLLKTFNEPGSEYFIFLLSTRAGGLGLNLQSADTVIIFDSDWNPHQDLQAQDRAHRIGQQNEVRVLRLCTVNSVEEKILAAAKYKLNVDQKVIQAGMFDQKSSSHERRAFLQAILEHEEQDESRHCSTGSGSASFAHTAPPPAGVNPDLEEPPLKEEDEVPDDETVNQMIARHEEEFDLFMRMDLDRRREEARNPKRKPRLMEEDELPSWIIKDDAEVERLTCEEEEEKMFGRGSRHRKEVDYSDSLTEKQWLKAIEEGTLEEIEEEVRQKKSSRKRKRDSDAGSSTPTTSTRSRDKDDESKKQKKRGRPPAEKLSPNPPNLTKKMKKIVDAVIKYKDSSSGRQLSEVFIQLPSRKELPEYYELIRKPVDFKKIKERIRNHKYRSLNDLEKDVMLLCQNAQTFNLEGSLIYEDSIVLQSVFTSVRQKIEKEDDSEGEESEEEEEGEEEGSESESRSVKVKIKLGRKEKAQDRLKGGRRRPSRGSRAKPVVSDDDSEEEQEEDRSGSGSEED
- ASSAY_NAME: SMARCA4 degradation in VCaP cells by Western blot
- Format: cell-based
- EXPERIMENTAL_CONDITIONS: 16 hours
Each entry below carries its recorded Percent degradation (at 100 nM) SMARCA4.
Report the figure in % without appending any unit label.

Cc1ncsc1-c1ccc([C@H](C)NC(=O)[C@@H]2C[C@@H](O)CN2C(=O)[C@@H](NC(=O)CN2CCN(c3ccc(-c4cnnc(-c5cccc6cc[nH]c56)c4)cc3)CC2)C(C)(C)C)cc1 17

Query string: I'd like to know its Percent degradation (at 100 nM) SMARCA4. The compound in question is Cc1ncsc1-c1ccc([C@H](C)NC(=O)[C@@H]2C[C@@H](O)CN2C(=O)[C@@H](NC(=O)CN2CCN(c3ccc(-c4cnnc(-c5cccc6cn[nH]c56)c4)cc3)CC2)C(C)(C)C)cc1
Result string: 22

Query string: I'd like to know its Percent degradation (at 100 nM) SMARCA4. The compound in question is Cc1ncsc1-c1ccc([C@H](C)NC(=O)[C@@H]2C[C@@H](O)CN2C(=O)[C@@H](NC(=O)CN2CC3(CC(c4ccc(-c5cnnc(-c6ccccc6O)c5)cc4)C3)C2)C(C)(C)C)cc1
Result string: 0

Query string: I'd like to know its Percent degradation (at 100 nM) SMARCA4. The compound in question is Cc1ncsc1-c1ccc([C@H](C)NC(=O)[C@@H]2C[C@@H](O)CN2C(=O)[C@@H](NC(=O)CN2CC=C(c3ccc(-c4cnnc(-c5ccccc5O)c4)cc3)CC2)C(C)(C)C)cc1
Result string: 0

Query string: I'd like to know its Percent degradation (at 100 nM) SMARCA4. The compound in question is Cc1ncsc1-c1ccc([C@H](C)NC(=O)[C@@H]2C[C@@H](O)CN2C(=O)[C@@H](NC(=O)CN2CCN(c3ccc(-c4cnnc(-c5cnn(C)c5)c4)cc3)CC2)C(C)(C)C)cc1
Result string: 14

====

- TEST_SYSTEM: SMARCA2 (Homo sapiens)
- Construct: Determination of SMARCA2 and SMARCA4 Degradation in VCaP Cells by Western Blot; endogenous in cells; host or cells: VCaP (ATCC CRL-2876)
- Sequence (P51531 whole entry): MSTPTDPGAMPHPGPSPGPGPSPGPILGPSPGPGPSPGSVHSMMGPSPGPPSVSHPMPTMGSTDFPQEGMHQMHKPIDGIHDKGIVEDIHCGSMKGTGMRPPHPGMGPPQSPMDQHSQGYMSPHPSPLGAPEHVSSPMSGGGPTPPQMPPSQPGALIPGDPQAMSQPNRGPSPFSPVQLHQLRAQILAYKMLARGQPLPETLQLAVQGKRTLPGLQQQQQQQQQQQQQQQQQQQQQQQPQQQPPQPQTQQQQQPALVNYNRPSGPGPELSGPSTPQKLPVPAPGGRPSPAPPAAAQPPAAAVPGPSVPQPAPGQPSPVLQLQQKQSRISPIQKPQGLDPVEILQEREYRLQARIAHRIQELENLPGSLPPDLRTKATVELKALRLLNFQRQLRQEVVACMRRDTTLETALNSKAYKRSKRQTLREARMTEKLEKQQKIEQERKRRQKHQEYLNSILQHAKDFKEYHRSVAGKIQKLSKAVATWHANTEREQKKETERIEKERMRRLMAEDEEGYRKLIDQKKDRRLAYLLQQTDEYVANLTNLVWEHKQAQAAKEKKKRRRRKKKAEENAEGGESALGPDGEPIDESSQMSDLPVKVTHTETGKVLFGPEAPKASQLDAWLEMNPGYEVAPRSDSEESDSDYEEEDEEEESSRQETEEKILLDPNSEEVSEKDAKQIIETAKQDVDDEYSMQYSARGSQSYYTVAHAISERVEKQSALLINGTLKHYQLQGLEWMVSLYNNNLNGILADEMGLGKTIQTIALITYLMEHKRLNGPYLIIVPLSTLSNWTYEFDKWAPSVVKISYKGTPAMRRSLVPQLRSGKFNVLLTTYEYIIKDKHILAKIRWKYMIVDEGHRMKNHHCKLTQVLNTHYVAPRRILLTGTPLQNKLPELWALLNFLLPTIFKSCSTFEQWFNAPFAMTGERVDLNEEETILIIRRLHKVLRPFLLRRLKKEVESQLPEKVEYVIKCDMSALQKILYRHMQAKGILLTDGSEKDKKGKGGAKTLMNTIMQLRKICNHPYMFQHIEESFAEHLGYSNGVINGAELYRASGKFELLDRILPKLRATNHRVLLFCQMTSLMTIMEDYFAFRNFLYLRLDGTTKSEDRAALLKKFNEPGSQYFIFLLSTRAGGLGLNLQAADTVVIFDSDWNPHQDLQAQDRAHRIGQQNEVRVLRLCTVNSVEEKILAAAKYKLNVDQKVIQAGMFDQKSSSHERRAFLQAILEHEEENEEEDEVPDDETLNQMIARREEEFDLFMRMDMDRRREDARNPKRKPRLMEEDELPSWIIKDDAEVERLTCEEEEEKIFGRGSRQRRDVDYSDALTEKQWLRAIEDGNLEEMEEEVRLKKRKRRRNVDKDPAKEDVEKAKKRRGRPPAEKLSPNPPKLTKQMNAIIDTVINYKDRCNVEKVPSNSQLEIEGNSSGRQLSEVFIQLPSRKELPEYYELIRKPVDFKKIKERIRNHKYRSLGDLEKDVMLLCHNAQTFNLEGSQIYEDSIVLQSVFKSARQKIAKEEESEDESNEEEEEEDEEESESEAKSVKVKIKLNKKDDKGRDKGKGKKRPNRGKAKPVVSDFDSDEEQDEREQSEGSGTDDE
- ASSAY_NAME: SMARCA2 degradation in VCaP cells by Western blot
- Assay type: cell-based
- EXPERIMENTAL_CONDITIONS: 16 hours
MEASURED_PROPERTY: Percent degradation (at 100 nM) SMARCA2 (%)
Report the figure in % without appending any unit label.

Cc1ncsc1-c1ccc([C@H](C)NC(=O)[C@@H]2C[C@@H](O)CN2C(=O)[C@@H](NC(=O)CN2CC(c3ccc(-c4cnnc(-c5ccccc5O)c4)cc3)C2)C(C)(C)C)cc1 21
Cc1ncsc1-c1ccc([C@H](C)NC(=O)[C@@H]2C[C@@H](O)CN2C(=O)[C@@H](NC(=O)CN2CCN(c3ccc(-c4cnnc(-c5cc(F)ccc5O)c4)cc3)CC2)C(C)(C)C)cc1 81
Cc1ncsc1-c1ccc([C@H](CO)NC(=O)[C@@H]2C[C@@H](O)CN2C(=O)[C@@H](NC(=O)CN2CCN(c3ccc(-c4cnnc(-c5ccccc5O)c4)cc3)CC2)C(C)(C)C)cc1 90
Cc1ncsc1-c1ccc([C@H](C)NC(=O)[C@@H]2C[C@@H](O)CN2C(=O)[C@@H](NC(=O)CN2CCC(Oc3ccc(-c4cnnc(-c5ccccc5O)c4)cc3)CC2)C(C)(C)C)cc1 88
Cc1ncsc1-c1ccc([C@H](C)NC(=O)[C@@H]2C[C@@H](O)CN2C(=O)[C@@H](NC(=O)C2CCN(c3ccc(-c4cnnc(-c5ccccc5O)c4)cc3)CC2)C(C)(C)C)cc1 76
Cc1ncsc1-c1ccc([C@H](C)NC(=O)[C@@H]2C[C@@H](O)CN2C(=O)[C@@H](NC(=O)CN2CCN(c3ccc(-c4cnnc(-c5cccc6ccoc56)c4)cc3)CC2)C(C)(C)C)cc1 6

With those in mind, consider the next molecule.
Query string: I'd like to know its Percent degradation (at 100 nM) SMARCA2. The molecule in question is Cc1ncsc1-c1ccc([C@H](C)NC(=O)[C@@H]2C[C@@H](O)CN2C(=O)[C@@H](NC(=O)CN2CC3CCC(C2)N3c2ccc(-c3cnnc(-c4ccccc4O)c3)cc2)C(C)(C)C)cc1
Result string: 96

====

Each entry below carries its recorded Percent degradation (at 100 nM) SMARCA2.
- TEST_SYSTEM: SMARCA2 (Homo sapiens)
- Construct: Determination of SMARCA2 and SMARCA4 Degradation in VCaP Cells by Western Blot; endogenous in cells; host or cells: VCaP (ATCC CRL-2876)
- ASSAY_NAME: SMARCA2 degradation in VCaP cells by Western blot
- Format: cell-based
- EXPERIMENTAL_CONDITIONS: 16 hours
Report the figure in % without appending any unit label.

Reference set, count: 3
MOLECULE	TEST_SYSTEM	Percent degradation (at 100 nM) SMARCA2 [%]
Cc1ncsc1-c1ccc([C@H](C)NC(=O)[C@@H]2C[C@@H](O)CN2C(=O)[C@@H](NC(=O)CN2CCC(Nc3ccc(-c4cnnc(-c5ccccc5O)c4)cc3)CC2)C(C)(C)C)cc1 [Compound 45]	SMARCA2 (Homo sapiens)	94
Cc1ncsc1-c1ccc([C@H](C)NC(=O)[C@@H]2C[C@@H](O)CN2C(=O)[C@@H](NC(=O)CN2CCN(c3ccc(-c4cnnc(-c5ccccc5O)c4)cn3)CC2)C(C)(C)C)cc1 [Compound 5]	SMARCA2 (Homo sapiens)	94
Cc1ncsc1-c1ccc([C@H](C)NC(=O)[C@@H]2C[C@@H](O)CN2C(=O)[C@@H](NC(=O)C(C)N2CCN(c3ccc(-c4cnnc(-c5ccccc5O)c4)cc3)CC2)C(C)(C)C)cc1 (single isomer, unassigned) [Compound 30]	SMARCA2 (Homo sapiens)	79

With those in mind, consider the next molecule.
Query string: I'd like to know its Percent degradation (at 100 nM) SMARCA2. The molecule in question is Cc1ncsc1-c1ccc([C@H](C)NC(=O)[C@@H]2C[C@@H](O)CN2C(=O)C(c2cc(-c3ccc(-c4cnnc(-c5ccccc5O)c4)cc3)no2)C(C)C)cc1 (mixture of isomers) [Compound 1]
Result string: 0
